Target: PTP-1B (Homo sapiens, UniProt P18031)
Construct: known to encode a 321 amino acid fragment containing the PTP-1B catalytic domain and having PTPase activity; made in house; host or cells: E. coli DH5α, plasmid pGEX-3X-PTP-1B
Sequence (P18031 3-277 limits assumed): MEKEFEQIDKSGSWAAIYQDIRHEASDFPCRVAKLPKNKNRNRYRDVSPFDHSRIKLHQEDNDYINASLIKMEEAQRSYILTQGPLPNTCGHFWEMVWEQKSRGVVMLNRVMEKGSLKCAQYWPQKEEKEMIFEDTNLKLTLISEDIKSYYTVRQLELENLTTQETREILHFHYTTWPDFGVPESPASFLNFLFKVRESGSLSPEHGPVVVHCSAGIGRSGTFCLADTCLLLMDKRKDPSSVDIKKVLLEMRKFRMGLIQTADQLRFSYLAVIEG
Assay: In vitro PTPase inhibition assay (pNPP, colorimetric), PTP-1B
Assay type: biochemical
Settings: Table 8; 1 μM compound
Assay endpoint: % inhibition of PTP1B at 1 μM (%)

In [3]: df
Out[3]:
                                   compound  value_unit  observed_result
0  O=C(O)/C=C/c1ccc(C(=O)OC(C(=O)NCCC(=O)O)c2ccc(Br)cc2)cc1 (racemic) [Compound 36]           %               52
1  CCCC(CCC)C(=O)OC(C(=O)NCCCCCC(=O)O)c1ccc(/C=C/C(=O)O)cc1 (racemic) [Compound 48]           %               69
2  O=C(O)/C=C/c1ccc(C(=O)OC(C(=O)NCCCCCC(=O)O)c2ccc(Br)cc2)cc1 (racemic) [Compound 37]           %               85
3  O=C(O)/C=C/c1ccc(C(OC(=O)CCC2CCCC2)C(=O)NCCCCCC(=O)O)cc1 (racemic) [Compound 50]           %               50

====

Target: PTP-1C (Homo sapiens)
Sequence (P29350 whole entry, species assumed): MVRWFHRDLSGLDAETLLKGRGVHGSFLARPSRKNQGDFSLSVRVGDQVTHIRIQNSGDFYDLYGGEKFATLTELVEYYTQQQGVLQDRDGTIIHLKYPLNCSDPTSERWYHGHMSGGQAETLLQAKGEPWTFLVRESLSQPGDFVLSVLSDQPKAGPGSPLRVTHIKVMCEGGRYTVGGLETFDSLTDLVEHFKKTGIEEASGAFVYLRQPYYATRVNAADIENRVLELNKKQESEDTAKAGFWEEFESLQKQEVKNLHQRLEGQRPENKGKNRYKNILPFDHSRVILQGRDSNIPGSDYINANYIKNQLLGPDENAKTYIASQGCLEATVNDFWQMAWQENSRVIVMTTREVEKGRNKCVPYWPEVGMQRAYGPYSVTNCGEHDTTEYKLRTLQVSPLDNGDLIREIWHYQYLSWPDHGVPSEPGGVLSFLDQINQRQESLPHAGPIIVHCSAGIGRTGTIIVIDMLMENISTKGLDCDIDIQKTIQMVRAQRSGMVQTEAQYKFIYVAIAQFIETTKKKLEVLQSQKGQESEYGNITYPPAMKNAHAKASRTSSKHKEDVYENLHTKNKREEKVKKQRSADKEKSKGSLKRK
Assay: In vitro PTPase inhibition assay (pNPP, colorimetric), PTP-1C
Type: biochemical
Conditions: Table 8; 100 μM compound
Assay endpoint: % inhibition of PTP1C at 100 μM (%)

>>> df
                                    molecule  value_unit  observed_result
 0  O=C(O)/C=C/c1ccc(C(=O)OC(C(=O)NCCC(=O)O)c2ccc(Br)cc2)cc1 (racemic) [Compound 36]           %               42
 1  O=C(O)/C=C/c1ccc(C(OC(=O)/C=C/c2ccc(F)cc2)C(=O)NCCCCCC(=O)O)cc1 (racemic) [Compound 46]           %               61
 2  COc1ccc(C(=O)OC(C(=O)NCCCCCC(=O)O)c2ccc(/C=C/C(=O)O)cc2)cc1 (racemic) [Compound 43]           %               79
 3  CCCC(CCC)C(=O)OC(C(=O)NCCCCCC(=O)O)c1ccc(/C=C/C(=O)O)cc1 (racemic) [Compound 48]           %               33
 4  CCCCCCCCCC(OC(=O)c1ccc(/C=C/C(=O)O)cc1)C(=O)NCCC(=O)O (racemic) [Compound 40]           %               62
 5  CCCCCCC(OC(=O)c1ccc(/C=C/C(=O)O)cc1)C(=O)NCCC(=O)O (racemic) [Compound 38]           %               63
 6  CCCC(CCC)C(=O)OC(C(=O)NCCC(=O)O)c1ccc(/C=C/C(=O)O)cc1 (racemic) [Compound 47]           %               63
 7  O=C(O)/C=C/c1ccc(C(OC(=O)c2ccc([N+](=O)[O-])cc2)C(=O)NCCC(=O)O)cc1 (racemic) [Compound 44]           %               86
 8  COc1ccc(C(=O)OC(C(=O)NCCC(=O)O)c2ccc(/C=C/C(=O)O)cc2)cc1 (racemic) [Compound 42]           %               88
 9  O=C(O)/C=C/c1ccc(C(OC(=O)CCC2CCCC2)C(=O)NCCC(=O)O)cc1 (racemic) [Compound 49]           %               35
10  O=C(O)/C=C/c1ccc(C(=O)OC(C(=O)NCCCCCC(=O)O)c2ccc(Br)cc2)cc1 (racemic) [Compound 37]           %               59
11  O=C(O)/C=C/c1ccc(C(OC(=O)/C=C/c2ccc(F)cc2)C(=O)NCCC(=O)O)cc1 (racemic) [Compound 45]           %               84
12  O=C(O)/C=C/c1ccc(C(OC(=O)CCC2CCCC2)C(=O)NCCCCCC(=O)O)cc1 (racemic) [Compound 50]           %               25
13  CCCCCCC(OC(=O)c1ccc(/C=C/C(=O)O)cc1)C(=O)NCCCCCC(=O)O (racemic) [Compound 39]           %               53
14  CCCCCCCCCC(OC(=O)c1ccc(/C=C/C(=O)O)cc1)C(=O)NCCCCCC(=O)O (racemic) [Compound 41]           %               17

====

Target: PTPα (Homo sapiens, UniProt P18433)
Sequence (P18433 20-802): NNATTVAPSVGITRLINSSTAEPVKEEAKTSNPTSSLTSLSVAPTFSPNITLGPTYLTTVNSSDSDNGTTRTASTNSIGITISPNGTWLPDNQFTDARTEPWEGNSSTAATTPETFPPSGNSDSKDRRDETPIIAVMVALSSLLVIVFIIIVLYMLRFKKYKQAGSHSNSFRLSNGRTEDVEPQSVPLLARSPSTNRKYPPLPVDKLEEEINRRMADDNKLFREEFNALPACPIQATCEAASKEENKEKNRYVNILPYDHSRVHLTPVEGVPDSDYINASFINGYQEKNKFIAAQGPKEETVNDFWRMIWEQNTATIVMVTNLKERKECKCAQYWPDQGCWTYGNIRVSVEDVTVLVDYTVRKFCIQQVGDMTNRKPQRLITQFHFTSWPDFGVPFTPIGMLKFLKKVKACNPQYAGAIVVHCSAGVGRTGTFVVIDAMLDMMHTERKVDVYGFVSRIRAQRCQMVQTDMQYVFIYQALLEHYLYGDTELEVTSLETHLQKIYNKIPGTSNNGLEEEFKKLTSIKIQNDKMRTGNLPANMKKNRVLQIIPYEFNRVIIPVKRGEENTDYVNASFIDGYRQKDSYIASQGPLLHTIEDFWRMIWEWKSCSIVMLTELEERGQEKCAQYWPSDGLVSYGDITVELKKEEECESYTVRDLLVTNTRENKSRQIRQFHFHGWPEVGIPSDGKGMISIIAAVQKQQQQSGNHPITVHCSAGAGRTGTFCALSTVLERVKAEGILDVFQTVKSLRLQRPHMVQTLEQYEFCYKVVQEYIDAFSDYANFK
Test: In vitro PTPase inhibition assay (pNPP, colorimetric), PTPα
Format: biochemical
Conditions: Table 8; 100 μM compound
Assay endpoint: % inhibition of PTPα at 100 μM

In [3]: df
Out[3]:
                                   compound                        target_system  observed_result
0  CCCCCCCCCC(OC(=O)c1ccc(/C=C/C(=O)O)cc1)C(=O)NCCCCCC(=O)O (racemic)  PTPα (Homo sapiens, UniProt P18433)              20%
1  CCCC(CCC)C(=O)OC(C(=O)NCCC(=O)O)c1ccc(/C=C/C(=O)O)cc1 (racemic)  PTPα (Homo sapiens, UniProt P18433)              48%
2  COc1ccc(C(=O)OC(C(=O)NCCCCCC(=O)O)c2ccc(/C=C/C(=O)O)cc2)cc1 (racemic)  PTPα (Homo sapiens, UniProt P18433)              82%
3  O=C(O)/C=C/c1ccc(C(=O)OC(C(=O)NCCC(=O)O)c2ccc(Br)cc2)cc1 (racemic)  PTPα (Homo sapiens, UniProt P18433)               0%

====

Entries below carry reported IC50 on CD45 (Homo sapiens, UniProt P08575).
Sequence (P08575 599-1306 limits assumed): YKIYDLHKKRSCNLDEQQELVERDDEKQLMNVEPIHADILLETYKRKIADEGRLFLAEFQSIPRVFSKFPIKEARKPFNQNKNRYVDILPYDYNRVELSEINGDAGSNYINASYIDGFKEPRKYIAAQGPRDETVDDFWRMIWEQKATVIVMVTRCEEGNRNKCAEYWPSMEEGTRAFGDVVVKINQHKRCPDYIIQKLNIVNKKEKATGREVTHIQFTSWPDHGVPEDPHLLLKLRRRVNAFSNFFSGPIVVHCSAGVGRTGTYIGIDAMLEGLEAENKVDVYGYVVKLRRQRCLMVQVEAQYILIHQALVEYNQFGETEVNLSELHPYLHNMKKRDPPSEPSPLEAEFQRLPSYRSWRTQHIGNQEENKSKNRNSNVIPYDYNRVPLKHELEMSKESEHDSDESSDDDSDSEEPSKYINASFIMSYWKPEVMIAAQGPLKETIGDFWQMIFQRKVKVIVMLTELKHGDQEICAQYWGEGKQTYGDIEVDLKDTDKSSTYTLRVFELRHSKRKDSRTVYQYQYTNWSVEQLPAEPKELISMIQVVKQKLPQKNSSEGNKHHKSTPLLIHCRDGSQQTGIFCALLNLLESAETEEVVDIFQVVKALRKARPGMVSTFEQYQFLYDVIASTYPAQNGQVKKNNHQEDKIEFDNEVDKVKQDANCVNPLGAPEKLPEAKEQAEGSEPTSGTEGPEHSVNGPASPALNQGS
Assay endpoint: IC50 (nM)

                                smiles_repr  observed_result
0  O=C(O)/C=C/c1ccc(-c2nc(-c3ccc(C(=O)O)cc3)[nH]c2-c2ccc(/C=C/C(=O)O)cc2)cc1              730
1  COc1ccc(-c2nc(-c3ccc(/C=C/C(=O)O)cc3)c(-c3ccc(/C=C/C(=O)O)cc3)[nH]2)c(C)c1C             7100
2  O=C(O)/C=C/c1ccc(-c2nc(-c3cc(F)cc(F)c3)[nH]c2-c2ccc(/C=C/C(=O)O)cc2)cc1             1400
3  COc1cccc(-c2nc(-c3ccc(/C=C/C(=O)O)cc3)c(-c3ccc(/C=C/C(=O)O)cc3)[nH]2)c1O             1900
4  COc1cc(OC)c(OC)c(-c2nc(-c3ccc(/C=C/C(=O)O)cc3)c(-c3ccc(/C=C/C(=O)O)cc3)[nH]2)c1             5500
5  O=C(O)/C=C/c1ccc(-c2nc(-c3ccc(OCc4ccccc4)cc3)[nH]c2-c2ccc(/C=C/C(=O)O)cc2)cc1             1100

====

// CD45 (Homo sapiens) pIC50 records
pIC50: −log10 of the molar value.
Assay endpoint: pIC50

                                 smiles_repr  observed_result
 0  O=C(O)/C=C/c1ccc(-c2nc(-c3ccc4c(c3)OCO4)[nH]c2-c2ccc(/C=C/C(=O)O)cc2)cc1             5.74
 1  COc1ccc(-c2nc(-c3ccc(/C=C/C(=O)O)cc3)c(-c3ccc(/C=C/C(=O)O)cc3)[nH]2)cc1             6.01
 2  COC(=O)c1ccc2nc(-c3ccc(/C=C/C(=O)O)cc3)c(-c3ccc(/C=C/C(=O)O)cc3)nc2c1             5.89
 3  O=C(O)/C=C/c1ccc(-c2ncn(-c3ccccc3)c2-c2ccc(/C=C/C(=O)O)cc2)cc1             5.13
 4  Cn1cc(-c2nc(-c3ccc(/C=C/C(=O)O)cc3)c(-c3ccc(/C=C/C(=O)O)cc3)[nH]2)c2ccccc21             5.38
 5  O=C(O)/C=C/c1ccc(-c2nc(-c3ccc4ccc5cccc6ccc3c4c56)[nH]c2-c2ccc(/C=C/C(=O)O)cc2)cc1             4.70
 6  COc1cccc(-c2nc(-c3ccc(/C=C/C(=O)O)cc3)c(-c3ccc(/C=C/C(=O)O)cc3)[nH]2)c1[N+](=O)[O-]             6.46
 7  O=C(O)/C=C/c1ccc(-c2nc(-c3cccc(F)c3F)[nH]c2-c2ccc(/C=C/C(=O)O)cc2)cc1             5.90
 8  N#Cc1ccc(-c2nc(-c3ccc(/C=C/C(=O)O)cc3)c(-c3ccc(/C=C/C(=O)O)cc3)[nH]2)cc1             5.55
 9  CC(=O)Nc1ccc(-c2nc(-c3ccc(/C=C/C(=O)O)cc3)c(-c3ccc(/C=C/C(=O)O)cc3)[nH]2)cc1             5.95
10  CCCCn1cnc(-c2ccc(/C=C/C(=O)O)cc2)c1-c1ccc(/C=C/C(=O)O)cc1             5.15
11  O=C(O)/C=C/c1ccc(-c2nc3ccc(C(=O)O)cc3nc2-c2ccc(/C=C/C(=O)O)cc2)cc1             5.89
12  O=C(O)/C=C/c1ccc(-c2nc3cccnc3nc2-c2ccc(/C=C/C(=O)O)cc2)cc1             5.82
13  COc1ccc(-c2nc(-c3ccc(/C=C/C(=O)O)cc3)c(-c3ccc(/C=C/C(=O)O)cc3)[nH]2)cc1F             5.82

Cited source: patent US20020183518A1
